Origin of measurements: patent US12559506B2

Reported DC50 is given for each of the following compounds.
Target: LRRK2 (endogenous, HiBit tagged) (Homo sapiens, UniProt Q5S007)
Construct: endogenous in cells; host or cells: HEK293 cells with HiBit knock-in at the endogenous LRRK2 locus, stably expressing firefly luciferase
Sequence (Q5S007 whole entry): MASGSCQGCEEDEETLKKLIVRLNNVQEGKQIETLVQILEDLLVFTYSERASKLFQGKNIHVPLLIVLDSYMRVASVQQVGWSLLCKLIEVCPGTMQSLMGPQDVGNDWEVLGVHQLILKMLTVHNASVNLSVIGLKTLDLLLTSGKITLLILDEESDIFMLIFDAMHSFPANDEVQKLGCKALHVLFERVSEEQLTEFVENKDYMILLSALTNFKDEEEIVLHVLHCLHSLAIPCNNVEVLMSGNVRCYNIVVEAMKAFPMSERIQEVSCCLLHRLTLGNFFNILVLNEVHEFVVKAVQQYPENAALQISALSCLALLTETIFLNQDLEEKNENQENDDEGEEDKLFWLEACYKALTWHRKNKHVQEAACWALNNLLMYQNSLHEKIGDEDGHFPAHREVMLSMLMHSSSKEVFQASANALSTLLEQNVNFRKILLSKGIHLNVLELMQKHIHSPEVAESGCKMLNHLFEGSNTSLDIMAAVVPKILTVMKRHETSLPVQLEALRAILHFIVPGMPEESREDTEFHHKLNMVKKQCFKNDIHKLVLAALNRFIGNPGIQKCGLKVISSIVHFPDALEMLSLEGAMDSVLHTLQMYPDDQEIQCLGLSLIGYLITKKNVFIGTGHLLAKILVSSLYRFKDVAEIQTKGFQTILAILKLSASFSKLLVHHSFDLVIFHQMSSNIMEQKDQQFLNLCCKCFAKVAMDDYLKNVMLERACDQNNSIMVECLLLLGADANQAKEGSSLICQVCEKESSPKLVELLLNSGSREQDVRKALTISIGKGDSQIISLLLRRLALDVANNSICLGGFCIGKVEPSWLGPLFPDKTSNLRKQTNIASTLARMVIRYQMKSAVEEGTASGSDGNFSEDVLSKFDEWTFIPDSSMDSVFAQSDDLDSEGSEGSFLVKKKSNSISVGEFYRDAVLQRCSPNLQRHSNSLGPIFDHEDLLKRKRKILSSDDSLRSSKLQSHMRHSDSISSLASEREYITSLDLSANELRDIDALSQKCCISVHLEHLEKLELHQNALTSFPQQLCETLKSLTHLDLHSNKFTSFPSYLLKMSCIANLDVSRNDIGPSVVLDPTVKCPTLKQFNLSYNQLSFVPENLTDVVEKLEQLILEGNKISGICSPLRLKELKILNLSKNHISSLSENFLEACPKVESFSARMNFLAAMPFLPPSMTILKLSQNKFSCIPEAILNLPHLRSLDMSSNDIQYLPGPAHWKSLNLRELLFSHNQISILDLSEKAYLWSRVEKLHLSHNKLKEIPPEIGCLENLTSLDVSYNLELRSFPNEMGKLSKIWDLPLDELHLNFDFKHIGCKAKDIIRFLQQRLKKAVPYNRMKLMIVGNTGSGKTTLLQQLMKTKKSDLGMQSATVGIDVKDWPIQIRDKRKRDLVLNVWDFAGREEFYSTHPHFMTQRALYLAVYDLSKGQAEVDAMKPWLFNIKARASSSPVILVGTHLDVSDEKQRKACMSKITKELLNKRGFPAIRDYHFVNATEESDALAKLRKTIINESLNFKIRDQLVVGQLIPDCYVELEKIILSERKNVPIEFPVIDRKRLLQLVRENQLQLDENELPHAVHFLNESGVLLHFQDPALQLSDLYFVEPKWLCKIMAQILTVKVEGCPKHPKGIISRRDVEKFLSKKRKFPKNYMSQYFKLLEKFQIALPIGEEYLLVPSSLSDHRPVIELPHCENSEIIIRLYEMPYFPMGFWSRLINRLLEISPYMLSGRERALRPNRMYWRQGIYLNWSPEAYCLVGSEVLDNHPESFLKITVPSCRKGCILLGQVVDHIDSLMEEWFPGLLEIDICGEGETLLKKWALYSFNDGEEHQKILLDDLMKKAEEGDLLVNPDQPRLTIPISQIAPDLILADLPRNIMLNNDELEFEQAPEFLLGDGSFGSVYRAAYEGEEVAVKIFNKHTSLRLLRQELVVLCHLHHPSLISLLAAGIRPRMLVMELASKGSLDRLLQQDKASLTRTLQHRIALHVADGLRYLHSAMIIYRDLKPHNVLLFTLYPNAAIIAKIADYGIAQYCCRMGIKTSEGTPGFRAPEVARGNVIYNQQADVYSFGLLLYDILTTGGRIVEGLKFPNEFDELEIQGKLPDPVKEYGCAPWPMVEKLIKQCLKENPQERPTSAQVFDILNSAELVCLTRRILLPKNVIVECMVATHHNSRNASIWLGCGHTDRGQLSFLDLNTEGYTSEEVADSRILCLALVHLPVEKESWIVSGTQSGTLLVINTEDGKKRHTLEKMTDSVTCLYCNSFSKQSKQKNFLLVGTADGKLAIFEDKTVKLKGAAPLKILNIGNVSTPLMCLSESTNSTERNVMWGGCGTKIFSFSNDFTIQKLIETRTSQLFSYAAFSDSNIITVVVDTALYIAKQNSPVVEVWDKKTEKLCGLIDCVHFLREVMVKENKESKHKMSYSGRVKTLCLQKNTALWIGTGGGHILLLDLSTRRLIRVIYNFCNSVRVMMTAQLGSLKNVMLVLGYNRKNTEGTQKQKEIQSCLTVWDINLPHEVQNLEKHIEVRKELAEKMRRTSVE
Experiment: Endogenous LRRK2 degradation assay, endogenous gene C-terminally HiBit-tagged in HEK293 cells (Nano-Glo Dual Luciferase)
Format: cell-based
Details: endogenous HiBit-tagged LRRK2 in HEK293 cells, 24 hours treatment; read-out: Endogenous WT DC50

// worked examples, DC50 included
- compound: "CC1(Oc2ccc3[nH]nc(-c4cc(N5CCC(CC6(F)CCN(CC7CCN(c8c(F)cc9c(c8F)CN(C8CCC(=O)NC8=O)C9=O)CC7)CC6)CC5)ncn4)c3c2)CC1 (stereo not shown)"
  DC50: "10 to 50 nM"
- compound: "CC1(Oc2cc3c(-c4cc(N5CCC(O[C@H]6CC[C@H](OC7CCN(c8ccc9c(c8F)CN(C8CCC(=O)NC8=O)C9=O)CC7)CC6)CC5)ncn4)n[nH]c3cn2)CC1 (stereo partly shown)"
  DC50: "< 10 nM"
- compound: "CC1(Oc2ccc3[nH]nc(-c4cc(N5CCN(C[C@H]6CC[C@H](OC7CCN(c8ccc9c(c8F)CN(C8CCC(=O)NC8=O)C9=O)CC7)CC6)CC5(C)C)ncn4)c3c2)CC1 (stereo partly shown)"
  DC50: "50 to 100 nM"

Now for a further compound.
Ask: Given the entry CC1(Oc2ccc3n[nH]c(-c4cc(N5CCC(CN6CCN(CC7CCN(c8ccc(F)c9c8CN(C8CCC(=O)NC8=O)C9=O)CC7)CC6)CC5)ncn4)c3c2)CC1 (stereo not shown) , report its measured DC50.
Result: < 10 nM

----------
Target: wildtype LRRK2 (Homo sapiens, UniProt Q5S007)
Construct: expressed in transfected cells; host or cells: HEK293 (ATCC CRL-1573), transient transfection, mammalian expression vector with ubiquitin promoter
Sequence (Q5S007 whole entry): as above
Experiment: LRRK2 degradation assay, HiBit-tagged wildtype LRRK2 expressed from plasmid in HEK293 cells (Nano-Glo Dual-Luciferase)
Assay type: cell-based
Conditions: HiBit-tagged wildtype LRRK2 in HEK293 cells, 24 hours; read-out: **WT Dmax (%)
Procedure: Exemplary Assay for Testing LRRK2 Degradation Driven by Exemplary Hetero-Bifunctional Compounds Designed to Target LRRK2 […] While the transfection mixes were incubating, HEK293 cells (acquired from ATCC; ATCC CRL-1573) were harvested with trypsin. […] The cells were mixed well and counted. […] Developing Plates and Analyzing Data. […] Optically clear seals were added to each plate and each plate was incubated for 20 minutes with shaking for at least 10 minutes, and then read on a plate reader. […]
observable: Dmax

- compound: "C[C@H]1CN(c2cc(-c3n[nH]c4ccc(OC5(C)CC5)cc34)ncn2)CCN1CC1CCN(CCCNc2cccc3c2C(=O)N(C2CCC(=O)NC2=O)C3=O)CC1 (stereo partly drawn) [Compound 140]"
  Dmax: "< 50%"

Ask: Given the entry CC1(Oc2ccc3n[nH]c(-c4cc(N5CCN(CC6(F)CCN(C(=O)C7CCN(c8ccc9c(c8)C(=O)N(C8CCC(=O)NC8=O)C9=O)CC7)CC6)CC5)ncn4)c3c2)CC1 (stereo not drawn) [Compound 96] , report its measured Dmax.
Result: 50 to 70%

Ask: Consider next the compound CC1(Oc2ccc3n[nH]c(-c4ccnc(N5CCN(C(=O)C6CCN(CC7CCN(c8ccc9c(c8)C(=O)N(C8CCC(=O)NC8=O)C9=O)CC7)CC6)CC5)c4)c3c2)CC1 (stereo not drawn) [Compound 85] in the same way.
Result: < 50%

Ask: Consider next the compound C[C@H]1CN(c2cc(-c3n[nH]c4ccc(OC5(C)CC5)cc34)ncn2)CCN1CC1CCN(CCCNc2cccc3c2CN(C2CCC(=O)NC2=O)C3=O)CC1 (stereo partly drawn) [Compound 142] in the same way.
Result: < 50%

Ask: Consider next the compound CC1(Oc2ccc3[nH]nc(-c4cc(N5CCN(C[C@@H]6CCN(CC7CCN(c8ccc9c(c8)C(=O)N(C8CCC(=O)NC8=O)C9=O)CC7)C(=O)C6)CC5)ncn4)c3c2)CC1 (single isomer, unassigned) [Compound 103] in the same way.
Result: 50 to 70%

Ask: Consider next the compound CC1(Oc2ccc3[nH]nc(-c4cc(N5CCC(CN6CC[C@@H](OC7CCN(c8ccc9c(c8)C(=O)N(C8CCC(=O)NC8=O)C9=O)CC7)C6)CC5)ncn4)c3c2)CC1 (stereo partly drawn) [Compound 119] in the same way.
Result: < 50%

----------
Target: wildtype LRRK2 (Homo sapiens, UniProt Q5S007)
Construct: expressed in transfected cells; host or cells: HEK293 (ATCC CRL-1573), transient transfection, mammalian expression vector with ubiquitin promoter
Assay: LRRK2 degradation assay, HiBit-tagged wildtype LRRK2 expressed from plasmid in HEK293 cells (Nano-Glo Dual-Luciferase)
Assay type: cell-based
Conditions: HiBit-tagged wildtype LRRK2 in HEK293 cells, 24 hours; read-out: **WT Dmax (%)
Reported Dmax is given for each of the following molecules.

// worked examples, Dmax included
- molecule: "CC1(Oc2ccc3[nH]nc(-c4ccnc(N5CC(F)(CN6CCN(CC7CCN(c8ccc9c(c8)C(=O)N(C8CCC(=O)NC8=O)C9=O)CC7)CC6)C5)c4)c3c2)CC1 (stereo not drawn)"
  observable: "Dmax"
  measValue: "50 to 70%"
- molecule: "C[C@H]1CN(c2cc(-c3n[nH]c4cc(F)c(OC5(C)CC5)cc34)ncn2)CCN1CC1(F)CCN(CC2CCN(c3ccc4c(c3)C(=O)N(C3CCC(=O)NC3=O)C4=O)CC2)CC1 (stereo partly drawn)"
  observable: "Dmax"
  measValue: "< 50%"

Now for a further molecule.
Ask: What value of Dmax on wildtype LRRK2 (Homo sapiens, UniProt Q5S007) does CC1(Oc2ccc3[nH]nc(-c4cc(N5CCN(C[C@H]6CC[C@H](CN7CCN(c8ccc9c(c8)C(=O)N(C8CCC(=O)NC8=O)C9=O)CC7)CC6)CC5)ncn4)c3c2)CC1 (stereo partly drawn) have?
Result: 50 to 70%

----------
Biological target: G2019S LRRK2 (Homo sapiens, UniProt Q5S007, G2019S)
Construct: expressed in transfected cells; host or cells: HEK293 (ATCC CRL-1573), transient transfection, mammalian expression vector with ubiquitin promoter
Sequence (Q5S007 whole entry G2019S): as the sequence (Q5S007 whole entry) above, with G2019S counted along it
Test: LRRK2 degradation assay, HiBit-tagged G2019S LRRK2 expressed from plasmid in HEK293 cells (Nano-Glo Dual-Luciferase)
Type: cell-based
Conditions: HiBit-tagged G2019S LRRK2 in HEK293 cells, 24 hours
Procedure: Exemplary Assay for Testing LRRK2 Degradation Driven by Exemplary Hetero-Bifunctional Compounds Designed to Target LRRK2 […] While the transfection mixes were incubating, HEK293 cells (acquired from ATCC; ATCC CRL-1573) were harvested with trypsin. […] The cells were mixed well and counted. […] Developing Plates and Analyzing Data. […] Optically clear seals were added to each plate and each plate was incubated for 20 minutes with shaking for at least 10 minutes, and then read on a plate reader. […]
Reported Dmax is given for each of the following molecules.

- molecule: "CC1(Oc2ccc3[nH]nc(-c4cc(N5CCN(C[C@H]6CC(=O)N(CC7CCN(c8ccc9c(c8)C(=O)N(C8CCC(=O)NC8=O)C9=O)CC7)C6)CC5)ncn4)c3c2)CC1 (single isomer, unassigned)"
  targetOfAssay: "G2019S LRRK2 (Homo sapiens, UniProt Q5S007, G2019S)"
  Dmax: "50 to 70%"
- molecule: "CC1(Oc2ccc3[nH]nc(-c4ccnc(N5CCN(C[C@H]6CC[C@H](CN7CCN(c8ccc9c(c8)C(=O)N(C8CCC(=O)NC8=O)C9=O)CC7)CC6)CC5)c4)c3c2)CC1 (stereo partly drawn)"
  targetOfAssay: "G2019S LRRK2 (Homo sapiens, UniProt Q5S007, G2019S)"
  Dmax: "< 50%"

Now for a further molecule.
Ask: Given the entry C[C@H]1CN(c2cc(-c3n[nH]c4ccc(OC5(C)CC5)cc34)ncn2)CCN1CCC1(F)CCN(CC2CCN(c3ccc4c(c3)C(=O)N(C3CCC(=O)NC3=O)C4=O)CC2)CC1 (stereo partly drawn) , report its measured Dmax.
Result: 50 to 70%

----------
Reported Dmax is given for each of the following compounds.
Target: G2019S LRRK2 (Homo sapiens, UniProt Q5S007, G2019S)
Construct: expressed in transfected cells; host or cells: HEK293 (ATCC CRL-1573), transient transfection, mammalian expression vector with ubiquitin promoter
Experiment: LRRK2 degradation assay, HiBit-tagged G2019S LRRK2 expressed from plasmid in HEK293 cells (Nano-Glo Dual-Luciferase)
Format: cell-based
Conditions: HiBit-tagged G2019S LRRK2 in HEK293 cells, 24 hours

// worked examples, Dmax included
- compound: "CC1(Oc2ccc3[nH]nc(-c4cc(N5CCC(CN6CCN(CC7CCN(c8cc9c(cc8F)C(=O)N(C8CCC(=O)NC8=O)C9=O)CC7)CC6)CC5)ncn4)c3c2)CC1 (stereo not drawn) [Compound 107]"
  measValue: "50 to 70%"
- compound: "CC1(Oc2ccc3[nH]nc(-c4cc(N5CCN(CC6CCN(C(=O)C7CCN(c8ccc9c(c8)C(=O)N(C8CCC(=O)NC8=O)C9=O)CC7)CC6)CC5)ncn4)c3c2)CC1 (stereo not drawn) [Compound 90]"
  measValue: "50 to 70%"
- compound: "CC1(Oc2ccc3[nH]nc(-c4cc(N5CCN(CC6(F)CCN(CC7CCN(c8ccc9c(c8)C(=O)N(C8CCC(=O)NC8=O)C9=O)CC7)CC6)CC5)ncn4)c3c2)CC1 (stereo not drawn) [Compound 79]"
  measValue: "50 to 70%"
- compound: "CC1(Oc2ccc3[nH]nc(-c4ccnc(N5CCN(CC6(F)CCN(CC7CCN(c8ccc9c(c8)C(=O)N(C8CCC(=O)NC8=O)C9=O)CC7)CC6)CC5)c4)c3c2)CC1 (stereo not drawn) [Compound 80]"
  measValue: "50 to 70%"

Ask: Given the entry CC1(Oc2ccc3n[nH]c(-c4cc(N5CCC(CN6CCC(CN7CCN(c8ccc9c(c8)C(=O)N(C8CCC(=O)NC8=O)C9=O)CC7)CC6)CC5)ncn4)c3c2)CC1 (stereo not drawn) [Compound 67] , report its measured Dmax.
Result: ≥ 70%
